The measurements presented in this section are drawn from the supplement of paper PMC11061612.

Tested on: Hs-746T (Gastric Carcinoma);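 further: after 72 h of two-drug dosing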
Assay: Bliss excess, mean over the matrix (fraction); higher = more synergy
Lab note: anything with Bliss excess at or over -0.01 counts as condition met; the rest go in condition not met.

compound | category
COc1cccc(OCCCN)c1-c1cc(Nc2cnc(C#N)cn2)n[nH]1 [Prexasertib] + C=CCn1c(=O)c2cnc(Nc3ccc(N4CCN(C)CC4)cc3)nc2n1-c1cccc(C(C)(C)O)n1 [AZD1775] (first compound max 1 µM, partner max 1 µM) | condition not met
C[C@@H](c1ccc2nccn2c1)n1nnc2ncc(-c3cnn(C)c3)nc21 [Savolitinib] + Cc1c2c(nn1C)CSCc1cc(n(C)n1)CSc1cc(c3ccccc3c1)OCCCc1c(C(=O)O)n(C)c3c-2c(Cl)ccc13 [AZD5991] (first compound max 1 µM, 7x7, partner max 1 µM) | condition not met
NC1(C(=O)N[C@@H](CCO)c2ccc(Cl)cc2)CCN(c2ncnc3[nH]ccc23)CC1 [Capivasertib] + CC(C)n1c(=O)n(C)c2cnc3cc(F)c(-c4ccc(OCCCN5CCCCC5)nc4)cc3c21 [AZD1390] (first compound max 10 µM, 7x7, partner max 0.3 µM) | condition not met
CN(CCO)CC[C@H](CSc1ccccc1)Nc1ccc(S(=O)(=O)NC(=O)c2ccc(N3CCC([C@@H](O)c4ccccc4-c4ccc(Cl)cc4)CC3)cc2)cc1S(=O)(=O)C(F)(F)F [AZD4320] + CCN(CCO)CCCOc1ccc2c(Nc3cc(CC(=O)Nc4cccc(F)c4)[nH]n3)ncnc2c1 [AZD2811] (first compound max 1 µM, 7x7, partner max 1 µM) | condition met
COc1cccc(OCCCN)c1-c1cc(Nc2cnc(C#N)cn2)n[nH]1 [Prexasertib] + O=C(c1cc(Cc2n[nH]c(=O)c3ccccc23)ccc1F)N1CCN(C(=O)C2CC2)CC1 [Olaparib] (first compound max 1 µM, 7x7, partner max 10 µM) | condition not met
COc1cc2ncnc(Nc3ccc(F)c(Cl)c3)c2cc1OCCCN1CCOCC1 [Gefitinib] + CC(C)n1c(=O)n(C)c2cnc3cc(F)c(-c4ccc(OCCCN5CCCCC5)nc4)cc3c21 [AZD1390] (first compound max 10 µM, 7x7, partner max 0.3 µM) | condition not met

API: above_or_equal(metric=Bliss excess, cutoff=-0.01) for item NC1(C(=O)N[C@@H](CCO)c2ccc(Cl)cc2)CCN(c2ncnc3[nH]ccc23)CC1 [Capivasertib] + COc1nnc2ccc(N3CCC(c4ccc(OCCN5CCN(C)C(=O)[C@H]5C)cc4)CC3)nn12 [AZD5153] (first compound max 10 µM, 7x7, partner max 1 µM)
condition met

Form field: Bliss excess at least -0.01? Entry: CC1(C)CCC(CN2CCN(c3ccc(C(=O)NS(=O)(=O)c4ccc(NCC5CCOCC5)c([N+](=O)[O-])c4)c(Oc4cnc5[nH]ccc5c4)c3)CC2)=C(c2ccc(Cl)cc2)C1 [Venetoclax] + C=CCn1c(=O)c2cnc(Nc3ccc(N4CCN(C)CC4)cc3)nc2n1-c1cccc(C(C)(C)O)n1 [AZD1775] (first compound max 1 µM, partner max 1 µM)
condition not met

Textbook exercise: given the entry CN(C)CCCOc1ccc(-c2ccc3ncc4c(c3c2)n(C2CCOCC2)c(=O)n4C)cn1 [AZD0156] + O=C(c1cc(Cc2n[nH]c(=O)c3ccccc23)ccc1F)N1CCN(C(=O)C2CC2)CC1 [Olaparib] (first compound max 3 µM, partner max 3 µM) , state whether its Bliss excess is greater than or equal to -0.01.
condition met

// inclusive: Bliss excess at least -0.01? input: CC(=O)Nc1cccc(-n2c(=O)n(C3CC3)c(=O)c3c(Nc4ccc(I)cc4F)n(C)c(=O)c(C)c32)c1 [Trametinib] + Cc1nc(-c2cn3c(n2)-c2ccc(-c4cnn(C(C)(C)C(N)=O)c4)cc2OCC3)n(C(C)C)n1 [Taselisib] (first compound max 1 µM, 7x7, partner max 10 µM)
condition met

Determine whether measured Bliss excess meets or exceeds -0.01 for NC1(C(=O)N[C@@H](CCO)c2ccc(Cl)cc2)CCN(c2ncnc3[nH]ccc23)CC1 [Capivasertib] + CCN(CCO)CCCOc1ccc2c(Nc3cc(CC(=O)Nc4cccc(F)c4)[nH]n3)ncnc2c1 [AZD2811] (first compound max 10 µM, 7x7, partner max 1 µM)
condition not met

# check: Bliss excess of CC1(C)CCC(CN2CCN(c3ccc(C(=O)NS(=O)(=O)c4ccc(NCC5CCOCC5)c([N+](=O)[O-])c4)c(Oc4cnc5[nH]ccc5c4)c3)CC2)=C(c2ccc(Cl)cc2)C1 [Venetoclax] + Cc1cc2ncnn2cc1Nc1ncc2c(n1)n(C1CCOCC1)c(=O)n2C [AZD7648] (first compound max 1 µM, 7x7, partner max 10 µM) is greater than or equal to -0.01
condition not met

Check the entry CN(C)CCCOc1ccc(-c2ccc3ncc4c(c3c2)n(C2CCOCC2)c(=O)n4C)cn1 [AZD0156] + CCN(CCO)CCCOc1ccc2c(Nc3cc(CC(=O)Nc4cccc(F)c4)[nH]n3)ncnc2c1 [AZD2811] (first compound max 1 µM, 7x7, partner max 1 µM) : does Bliss excess equal or exceed -0.01?
condition not met
